Source of measurements: the supplement of paper PMC3334620

Recorded PBM E-score, one value per entry.
tgt: Vhr1 (UniProt P40522)
Sequence: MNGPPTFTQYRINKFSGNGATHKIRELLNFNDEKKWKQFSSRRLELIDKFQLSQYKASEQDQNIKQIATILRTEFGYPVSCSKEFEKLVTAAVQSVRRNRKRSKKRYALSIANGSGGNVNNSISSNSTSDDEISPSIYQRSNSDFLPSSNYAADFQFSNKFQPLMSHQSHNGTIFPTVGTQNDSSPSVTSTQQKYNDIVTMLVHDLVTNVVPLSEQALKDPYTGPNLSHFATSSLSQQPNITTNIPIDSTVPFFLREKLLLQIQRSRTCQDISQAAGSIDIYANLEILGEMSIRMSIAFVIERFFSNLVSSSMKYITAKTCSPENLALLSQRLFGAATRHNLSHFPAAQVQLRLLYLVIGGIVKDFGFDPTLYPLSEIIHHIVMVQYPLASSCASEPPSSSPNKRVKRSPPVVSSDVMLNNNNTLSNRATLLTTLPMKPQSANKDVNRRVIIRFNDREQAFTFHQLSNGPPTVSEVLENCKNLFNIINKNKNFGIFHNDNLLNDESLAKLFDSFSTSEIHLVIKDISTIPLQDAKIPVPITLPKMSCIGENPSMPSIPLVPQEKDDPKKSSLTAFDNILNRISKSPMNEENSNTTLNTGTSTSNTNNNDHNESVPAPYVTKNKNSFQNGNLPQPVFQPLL
run.description: PBM E-score (8-mer binding enrichment) (E-score (-0.5 to 0.5)); higher = stronger / more preferred TF binding
test.settings: protein concentration: 200 nM; construct: GST-full length
Over roughly 33,000 sequences, “E-score (-0.5 to 0.5)” has its median near -0.012; the highest 2% begin near 0.27. The sample holds the highest values, similar sequences and a random draw of the others, so the mix is not that of the screen.
Write the number on its own, no unit after it.

Examples from the recorded data:
AAAGCCAT	-0.0236
AAGAAAGC	-0.174
CCTCATTC	-0.0181
ATGAGTCG	0.462
ATGAGTGG	0.162

// switching to the query sequence
Query the reported PBM E-score for Vhr1 (UniProt P40522); item: CCCTAGCC
-0.184
